Values were extracted from the supplement of paper PMC12317010.

# Assay text: collision cross section in nitrogen (drift tube, single-field); higher = larger gas-phase ion size;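 also: chemical standards at 10 µM analysed by drift tube IMS-QTOF MS in about 3.95 torr nitrogen, mean of duplicate injections differing ≤1%, mass error below 10 ppm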
# Setup conditions: ion type: [M+H]; ion source: ESI; ion mode: Positive
Counter-ions that a name gives are not always drawn.
collision cross section in nitrogen for assorted molecules
Assay metric: collision cross section in nitrogen (Å²)

- Molecule: "CC(=O)Nc1c(I)c(NC(C)=O)c(I)c(C(=O)O)c1I"
  Readout unit: "Å²"
  Data value: 179.4
- Molecule: "C[C@H]1O[C@H](O[C@H]2[C@H](O)[C@@H](O)[C@@H](O)[C@H](O)[C@@H]2O)[C@@H](N)C[C@@H]1NC(=N)C(=O)O [Kasugamycin hydrochloride]"
  Readout unit: "Å²"
  Data value: 165.9
- Molecule: "C[C@@H](Oc1ccc(CNC(=O)c2cccnc2Oc2ccc3c(c2)OCO3)c(F)c1)C(=O)O"
  Readout unit: "Å²"
  Data value: 196.3
- Molecule: "CCOc1cc(C(C)(C)C)ccc1C1COC(c2c(F)cccc2F)=N1 (stereo unspecified)"
  Readout unit: "Å²"
  Data value: 186.5
- Molecule: "O=C(CCCCCCCCc1cccnc1)N1CCC(C=C(c2ccccc2)c2ccccc2)CC1"
  Readout unit: "Å²"
  Data value: 238
- Molecule: "Cc1ncc(CO)c(CO)c1O"
  Readout unit: "Å²"
  Data value: 134.6
- Molecule: "c1ccc(-c2nc3ccccc3[nH]2)cc1"
  Readout unit: "Å²"
  Data value: 143
- Molecule: "COc1ccc2c(c1)[C@]13CCCC[C@@H]1[C@H](C2)N(C)CC3 [Dextromethorphan hydrobromide]"
  Readout unit: "Å²"
  Data value: 166.7
- Molecule: "CN(C)P(=O)(N(C)C)N(C)C [Hexamethylphosphoramide]"
  Readout unit: "Å²"
  Data value: 135.3
- Molecule: "NC(=O)c1nc(-c2cccc(-c3cc(F)ccc3OCC(F)(F)C(F)(F)F)c2)n[nH]1"
  Readout unit: "Å²"
  Data value: 189.1
- Molecule: "CC(C)(C#N)c1cc(Cn2cncn2)cc(C(C)(C)C#N)c1"
  Readout unit: "Å²"
  Data value: 183.5
- Molecule: "CNC(=O)N(C)c1nnc(C(C)(C)C)s1"
  Readout unit: "Å²"
  Data value: 150.5
- Molecule: "Cn1sccc1=O [2-Methyl-3-isothiazolone hydrochloride]"
  Readout unit: "Å²"
  Data value: 118.5
- Molecule: "CCOC(=O)COc1ccc2c(c1)CC(NCC(O)c1cccc(Cl)c1)CC2 (stereo unspecified)"
  Readout unit: "Å²"
  Data value: 192.2
- Molecule: "COCCOc1cc2cc(C(=O)NC3CCN(C(C)C)CC3)n(CC(=O)Nc3ccc(Cl)cn3)c2cn1"
  Readout unit: "Å²"
  Data value: 235.6
- Molecule: "CCON=C(CC)C1=C(O)CC(c2c(C)cc(C)cc2C)CC1=O (stereo unspecified)"
  Readout unit: "Å²"
  Data value: 187
- Molecule: "COc1cc(OC)nc(Oc2cccc(Oc3nc(OC)cc(OC)n3)c2C(=O)O)n1 [Bispyribac-sodium]"
  Readout unit: "Å²"
  Data value: 198.5
- Molecule: "O=S(=O)(O)c1ccc(O)c2ncccc12 [8-Hydroxyquinoline-5-sulfonic acid hydrate (1:x)]"
  Readout unit: "Å²"
  Data value: 146.7
- Molecule: "CCOP(=O)(NC(C)C)Oc1ccc(S(C)(=O)=O)c(C)c1 (stereo unspecified)"
  Readout unit: "Å²"
  Data value: 180.3
- Molecule: "CCCOC(=O)c1ccc(C(=O)OCCC)nc1 [Dipropyl 2,5-pyridinedicarboxylate]"
  Readout unit: "Å²"
  Data value: 163.2
- Molecule: "CCN(CCN)c1cccc(C)c1"
  Readout unit: "Å²"
  Data value: 140.5
- Molecule: "Cc1ccc2c(c1N)C(=O)c1ccccc1C2=O"
  Readout unit: "Å²"
  Data value: 153.2
- Molecule: "O=C(O)c1cccnc1 [Sodium nicotinate]"
  Readout unit: "Å²"
  Data value: 124.5
- Molecule: "COCCOC[C@H](CC1(C(=O)N[C@H]2CC[C@@H](C(=O)O)CC2)CCCC1)C(=O)Oc1ccc2c(c1)CCC2"
  Readout unit: "Å²"
  Data value: 224.4
- Molecule: "O=[N+]([O-])c1ccc2[nH]cnc2c1"
  Readout unit: "Å²"
  Data value: 136.5
- Molecule: "CCC1COC(Cn2cncn2)(c2ccc(Cl)cc2Cl)O1 (stereo unspecified)"
  Readout unit: "Å²"
  Data value: 174.1
- Molecule: "CC(C1CC1)C(O)(Cn1cncn1)c1ccc(Cl)cc1 (stereo unspecified)"
  Readout unit: "Å²"
  Data value: 170.2
- Molecule: "CCN(CC)CCNc1ccc(CNC=O)c2sc3ccc(OC)cc3c(=O)c12"
  Readout unit: "Å²"
  Data value: 197
- Molecule: "CN(CCOc1ccc(CC2SC(=O)NC2=O)cc1)c1ccccn1 (stereo unspecified) [Rosiglitazone maleate]"
  Readout unit: "Å²"
  Data value: 172.5
- Molecule: "Cc1cc(=O)nc(C(C)C)[nH]1"
  Readout unit: "Å²"
  Data value: 132.5
- Molecule: "Cc1ccnc2ccccc12 [Lepidine]"
  Readout unit: "Å²"
  Data value: 125.4
- Molecule: "Cc1ccc(Nc2ccc(Nc3ccc(C)cc3S(=O)(=O)O)c3c2C(=O)c2ccccc2C3=O)c(S(=O)(=O)O)c1"
  Readout unit: "Å²"
  Data value: 235.2
- Molecule: "CCCCN(CCO)CCO"
  Readout unit: "Å²"
  Data value: 136.7
- Molecule: "COCc1cnc(C2=NC(C)(C(C)C)C(=O)N2)c(C(=O)O)c1 (stereo unspecified)"
  Readout unit: "Å²"
  Data value: 172.4
- Molecule: "CCN1C(=O)c2ccccc2C1=O [N-Ethylphthalimide]"
  Readout unit: "Å²"
  Data value: 135.4
- Molecule: "CCNc1nc(NC(C)C)nc(OC)n1"
  Readout unit: "Å²"
  Data value: 150.5
